Recorded IC50, one value per entry.
# SUBJECT OF TEST: human GnRH receptor (Homo sapiens, UniProt P30968)
# Construct: line established by Prof; Thomas Gudermann
# Sequence (P30968 whole entry): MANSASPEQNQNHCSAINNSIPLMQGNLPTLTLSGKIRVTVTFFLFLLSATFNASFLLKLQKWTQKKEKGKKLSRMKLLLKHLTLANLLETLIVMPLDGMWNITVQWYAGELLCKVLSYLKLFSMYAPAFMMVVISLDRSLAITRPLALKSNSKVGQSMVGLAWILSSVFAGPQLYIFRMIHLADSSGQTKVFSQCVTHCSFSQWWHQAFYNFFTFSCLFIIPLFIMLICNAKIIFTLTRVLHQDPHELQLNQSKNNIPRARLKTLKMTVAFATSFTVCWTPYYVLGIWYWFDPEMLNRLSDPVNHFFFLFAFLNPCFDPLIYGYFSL
# MEASUREMENT PROTOCOL: IP-One HTRF assay (inhibition of GnRH-R activation by buserelin)
# TEST CONDITIONS: IP-One HTRF assay with buserelin (at EC80) stimulation; CHO cells stably expressing human GnRH receptor; tested 20 µM to 1 nM; read-out: Potency IC50

MOLECULE	UNIT DESCRIPTOR	IC50
COc1cccc(S(=O)(=O)N2c3ccc(C(=O)Nc4cccc(C)c4)cc3C3(CCC(O)(C(F)(F)F)CC3)C2C2CC2)c1 (stereo not drawn)	µM	3.41
CC(C)=CCC1N(S(=O)(=O)c2ccc(F)cc2)c2ccc(C(=O)Nc3cccc(C)c3)cc2C12CCC(O)(C(F)(F)F)CC2 (stereo not drawn)	µM	3.25
O=C(NC1CCc2ccccc21)c1ccc2c(c1)C1(CCC(O)(C(F)(F)F)CC1)C(C1CC1)N2S(=O)(=O)c1ccc(F)cc1 (stereo not drawn)	µM	0.611

----------
# SUBJECT OF TEST: human GnRH receptor (Homo sapiens, UniProt P30968)
# Construct: line established by Prof; Thomas Gudermann
# MEASUREMENT PROTOCOL: IP-One HTRF assay (inhibition of GnRH-R activation by buserelin)
# TEST CONDITIONS: IP-One HTRF assay with buserelin (at EC80) stimulation; CHO cells stably expressing human GnRH receptor; tested 20 µM to 1 nM; read-out: Potency IC50
pIC50: −log10 of the molar value.
Recorded pIC50, one value per entry.

COMPOUND	SUBJECT OF TEST	pIC50
O=C(NCc1ncc(C(F)(F)F)cc1F)c1ccc2c(c1)C1(CCC(O)(C(F)(F)F)CC1)C(C1CC1)N2S(=O)(=O)c1cccc(C(=O)N2CCC2)c1 (stereo not drawn)	human GnRH receptor (Homo sapiens, UniProt P30968)	5.49
O=C(NCc1ncccc1C(F)(F)F)c1ccc2c(c1)C1(CCC(O)(C(F)(F)F)CC1)C(C1CC1)N2S(=O)(=O)c1cccc(C(=O)N2CCC2)c1 (stereo not drawn) [Example 66]	human GnRH receptor (Homo sapiens, UniProt P30968)	5.66
CC(C)=CCC1N(S(=O)(=O)c2ccc(F)cc2)c2ccc(C(=O)Nc3ccon3)cc2C12CCC(O)(C(F)(F)F)CC2 (stereo not drawn)	human GnRH receptor (Homo sapiens, UniProt P30968)	6.28
O=C(NCc1ncccc1C(F)(F)F)c1ccc2c(c1)C1(CCC(O)(C(F)(F)F)CC1)C(C1CC1)N2S(=O)(=O)c1ccc(F)cc1 (single isomer, unassigned) [Example 65-2]	human GnRH receptor (Homo sapiens, UniProt P30968)	6.94
COc1cccc(S(=O)(=O)N2c3ccc(C(=O)Nc4ccon4)cc3C3(CCC(O)(C(F)(F)F)CC3)C2C2CC2)c1 (stereo not drawn)	human GnRH receptor (Homo sapiens, UniProt P30968)	5.77
COc1cccc(S(=O)(=O)N2c3ccc(C(=O)NCc4ccccc4Cl)cc3C3(CCC(O)(C(F)(F)F)CC3)C2C2CC2)c1 (stereo not drawn)	human GnRH receptor (Homo sapiens, UniProt P30968)	6.21
COc1cccc(S(=O)(=O)N2c3ccc(C(=O)Nc4cccc(S(N)(=O)=O)c4)cc3C3(CCC(O)(C(F)(F)F)CC3)C2C2CC2)c1 (stereo not drawn)	human GnRH receptor (Homo sapiens, UniProt P30968)	5.58
COc1cccc(S(=O)(=O)N2c3ccc(C(=O)Nc4cccc(S(C)(=O)=O)c4)cc3C3(CCC(O)(C(F)(F)F)CC3)C2C2CC2)c1 (stereo not drawn)	human GnRH receptor (Homo sapiens, UniProt P30968)	5.90
O=C(NCc1ccccc1Cl)c1ccc2c(c1)C1(CCC(O)(C(F)(F)F)CC1)C(C1CC1)N2S(=O)(=O)c1ccc(F)cc1 (single isomer, unassigned) [Example 62-1]	human GnRH receptor (Homo sapiens, UniProt P30968)	7.00
O=C(NCc1ccc(F)cc1Cl)c1ccc2c(c1)C1(CCC(O)(C(F)(F)F)CC1)C(C1CC1)N2S(=O)(=O)c1ccc(F)cc1 (stereo not drawn)	human GnRH receptor (Homo sapiens, UniProt P30968)	6.36
O=C(NCc1ccccc1Cl)c1ccc2c(c1)C1(CCC(=NO)CC1)C(C1CC1)N2S(=O)(=O)c1ccc(F)cc1 (stereo not drawn)	human GnRH receptor (Homo sapiens, UniProt P30968)	7.18
COc1cccc(S(=O)(=O)N2c3ccc(C(=O)Nc4cc[nH]n4)cc3C3(CCC(O)(C(F)(F)F)CC3)C2C2CC2)c1 (stereo not drawn)	human GnRH receptor (Homo sapiens, UniProt P30968)	5.65
O=C(Nc1cncc(C(F)(F)F)c1)c1ccc2c(c1)C1(CCC(O)(C(F)(F)F)CC1)C(C1CC1)N2S(=O)(=O)c1ccc(F)cc1 (stereo not drawn)	human GnRH receptor (Homo sapiens, UniProt P30968)	5.51
O=C(NCc1ccccc1Cl)c1ccc2c(c1)C1(CCC(O)(C(F)(F)F)CC1)C(C1CC1)N2S(=O)(=O)c1ccc(F)cc1 (stereo not drawn) [Example 62]	human GnRH receptor (Homo sapiens, UniProt P30968)	6.60
O=C(NCc1ncccc1Cl)c1ccc2c(c1)C1(CCC(O)(C(F)(F)F)CC1)C(C1CC1)N2S(=O)(=O)c1ccc(F)cc1 (single isomer, unassigned) [Example 1-2]	human GnRH receptor (Homo sapiens, UniProt P30968)	6.87
COC(=O)c1cccc(S(=O)(=O)N2c3ccc(C(=O)NCc4ncccc4C(F)(F)F)cc3C3(CCC(O)(C(F)(F)F)CC3)C2C2CC2)c1 (stereo not drawn)	human GnRH receptor (Homo sapiens, UniProt P30968)	6.21
CC(C)=CCC1N(S(=O)(=O)c2ccc(F)cc2)c2ccc(C(=O)NCC3CCCCC3)cc2C12CCC(O)(C(F)(F)F)CC2 (stereo not drawn)	human GnRH receptor (Homo sapiens, UniProt P30968)	4.88
O=C(Nc1ccon1)c1ccc2c(c1)C1(CCC(O)(C(F)(F)F)CC1)C(C1CC1)N2S(=O)(=O)c1ccc(F)cc1 (stereo not drawn) [Example 56]	human GnRH receptor (Homo sapiens, UniProt P30968)	6.54

Attribution: patent EP2881391A1
